Provide the reported pIC50 of each item.
assay system: SARM1 (50-724) (Homo sapiens, UniProt Q6SZW1)
Construct: Purified SARM1 (50-724) with a final concentration of 2 nM
Sequence (Q6SZW1 50-724): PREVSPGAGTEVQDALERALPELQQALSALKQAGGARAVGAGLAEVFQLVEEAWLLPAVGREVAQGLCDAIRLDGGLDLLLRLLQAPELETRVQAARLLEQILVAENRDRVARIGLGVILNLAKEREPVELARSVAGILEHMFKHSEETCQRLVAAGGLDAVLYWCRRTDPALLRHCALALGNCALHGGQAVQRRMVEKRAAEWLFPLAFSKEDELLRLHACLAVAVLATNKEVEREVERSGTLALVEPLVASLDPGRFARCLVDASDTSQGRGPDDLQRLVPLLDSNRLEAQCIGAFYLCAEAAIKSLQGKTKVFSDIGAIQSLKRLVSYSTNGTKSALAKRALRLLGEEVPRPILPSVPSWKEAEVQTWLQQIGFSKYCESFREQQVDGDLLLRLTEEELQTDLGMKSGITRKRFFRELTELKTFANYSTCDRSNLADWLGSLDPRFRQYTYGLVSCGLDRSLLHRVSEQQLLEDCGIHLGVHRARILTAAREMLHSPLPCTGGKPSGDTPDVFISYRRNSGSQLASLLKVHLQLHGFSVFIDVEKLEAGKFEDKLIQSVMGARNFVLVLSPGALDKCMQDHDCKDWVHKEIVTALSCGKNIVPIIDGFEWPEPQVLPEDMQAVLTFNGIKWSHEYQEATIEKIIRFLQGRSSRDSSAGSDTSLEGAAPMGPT
protocol description: SARM1 (50-724) enzymatic assay (NMN-activated NAD+ hydrolysis, LC-MS/MS readout)
settings: purified SARM1 (50-724) 2 nM, 200 μM NMN activator, 100 μM NAD+ substrate, 1 h at room temperature, read-out: IC50 (SARM1 inhibitory activity)
pIC50: −log10 of the molar value.

>  <compound>
O=C(c1nc2c(Cl)c(-c3ccn[nH]3)ccc2[nH]1)N(CC1COC1)c1cccc(Cl)c1Cl

>  <assay system>
SARM1 (50-724) (Homo sapiens, UniProt Q6SZW1)

>  <measure>
pIC50

>  <reported measurement>
≤ 6.00

$$$$
>  <compound>
Cc1ccc2[nH]c(C(=O)N(CCO)c3cccc(Cl)c3Cl)nc2c1 [Compound 98]

>  <assay system>
SARM1 (50-724) (Homo sapiens, UniProt Q6SZW1)

>  <measure>
pIC50

>  <reported measurement>
≥ 7.00

$$$$
>  <compound>
Cc1ccc2[nH]c(C(=O)N(C)c3cccc(Cl)c3Cl)c(CNc3nc(C(N)=O)c(C(C)C)s3)c2c1

>  <assay system>
SARM1 (50-724) (Homo sapiens, UniProt Q6SZW1)

>  <measure>
pIC50

>  <reported measurement>
≥ 7.00

$$$$
>  <compound>
CC(=O)NCCN(C(=O)c1nc2cc(C(F)(F)F)ccc2[nH]1)c1cccc(Cl)c1Cl

>  <assay system>
SARM1 (50-724) (Homo sapiens, UniProt Q6SZW1)

>  <measure>
pIC50

>  <reported measurement>
≥ 7.00

$$$$
>  <compound>
O=C(c1nc2cc(C(F)(F)F)ccc2[nH]1)N(CC(F)(F)CO)c1cccc(Cl)c1Cl

>  <assay system>
SARM1 (50-724) (Homo sapiens, UniProt Q6SZW1)

>  <measure>
pIC50

>  <reported measurement>
≥ 7.00

$$$$

Hi team, please reply with pIC50 for each item in this list.
1. CN(C(=O)c1[nH]c2cc(Cl)ccc2c1CO)C1CCCC1
2. Cc1ccc2[nH]c(C(=O)N(C)c3ccc(Cl)c(Cl)c3)c(CO)c2c1
3. CC1(C)OCC(CN(C(=O)c2nc3cc(C(F)(F)F)ccc3[nH]2)c2cccc(Cl)c2Cl)O1 (racemic)

Response:
["≤ 6.00", "≤ 6.00", "≥ 7.00"]

Hi team, please reply with pIC50 for each item in this list.
1. NC(=O)CN(C(=O)c1nc2cc(C(F)(F)F)ccc2[nH]1)c1cccc(Cl)c1Cl
2. Cc1ccc2[nH]c(C(=O)N(C)C3CCCC3)nc2c1

Response:
1: ≥ 7.00; 2: 6.30 to 7.00
